- Test system: MOLT-4 T-ALL cells
- protocolDetails: MOLT-4 cell viability assay
- Format: cell-based, human
- conditionDescription: Homo sapiens, MOLT-4, 48 h, read-out: IC50, reduction of MOLT-4 cell viability
assayEndpoint: pIC50
Answer as the number alone; pIC50 is minus log10 of concentration in mol/L.

Reference set, count: 3
| compound | assayEndpoint | measured |
| --- | --- | --- |
| CC1(C)CCC(c2ccc(Cl)cc2)=C(CN2CCN(c3ccc(C(=O)NS(=O)(=O)c4ccc(N[C@H](CCN5CCN(CCOCCOCCOCCNc6cccc7c6C(=O)N(C6CCC(=O)NC6=O)C7=O)CC5)CSc5ccccc5)c(S(=O)(=O)C(F)(F)F)c4)cc3)CC2)C1 (stereo partly shown) [Compound 12c] | pIC50 | 7.76 |
| CN(CCCCCCCn1cc(COCCOCCNc2cccc3c2C(=O)N(C2CCC(=O)NC2=O)C3=O)nn1)CC[C@H](CSc1ccccc1)Nc1ccc(S(=O)(=O)NC(=O)c2ccc(N3CCN(CC4=C(c5ccc(Cl)cc5)CCC(C)(C)C4)CC3)cc2)cc1S(=O)(=O)C(F)(F)F (stereo partly shown) [Compound 15a] | pIC50 | 7.53 |
| CN(CCOCCOCCOCCNc1cccc2c1C(=O)N(C1CCC(=O)NC1=O)C2=O)CC[C@H](CSc1ccccc1)Nc1ccc(S(=O)(=O)NC(=O)c2ccc(N3CCN(CC4=C(c5ccc(Cl)cc5)CCC(C)(C)C4)CC3)cc2)cc1S(=O)(=O)C(F)(F)F (stereo partly shown) [Compound 17b] | pIC50 | 8.00 |

Shifting focus to the compound that follows.
Looking up CN(CCCNc1cccc2c1C(=O)N(C1CCC(=O)NC1=O)C2=O)CC[C@H](CSc1ccccc1)Nc1ccc(S(=O)(=O)NC(=O)c2ccc(N3CCN(CC4=C(c5ccc(Cl)cc5)CCC(C)(C)C4)CC3)cc2)cc1S(=O)(=O)C(F)(F)F (stereo partly shown) [Compound 16a] , I found its pIC50 recorded as 7.49

====

Reported pIC50 values for the following compounds.
- Tested on: RS4;11 B-cell ALL cell line
- protocolDetails: RS4
- Format: cell-based
- conditionDescription: Homo sapiens, RS4-11, 48 h, read-out: IC50 48 h treatment RS4;11
Would you please state pIC50, meaning minus log10 of the concentration in mol/L, as a bare number?

Below are worked cases with known answers.
| compound | experimentalTarget | measured |
| --- | --- | --- |
| CN(CCOCCOCCOCCNc1cccc2c1C(=O)N(C1CCC(=O)NC1=O)C2=O)CC[C@H](CSc1ccccc1)Nc1ccc(S(=O)(=O)NC(=O)c2ccc(N3CCN(CC4=C(c5ccc(Cl)cc5)CCC(C)(C)C4)CC3)cc2)cc1S(=O)(=O)C(F)(F)F (stereo partly shown) [Compound 17b] | RS4;11 B-cell ALL cell line | 7.38 |
| CC1(C)CCC(c2ccc(Cl)cc2)=C(CN2CCN(c3ccc(C(=O)NS(=O)(=O)c4ccc(N[C@H](CCN5CCN(CCOCCOCCOCCNc6cccc7c6C(=O)N(C6CCC(=O)NC6=O)C7=O)CC5)CSc5ccccc5)c(S(=O)(=O)C(F)(F)F)c4)cc3)CC2)C1 (stereo partly shown) [Compound 12c] | RS4;11 B-cell ALL cell line | 7.41 |
| CN(CCCNc1cccc2c1C(=O)N(C1CCC(=O)NC1=O)C2=O)CC[C@H](CSc1ccccc1)Nc1ccc(S(=O)(=O)NC(=O)c2ccc(N3CCN(CC4=C(c5ccc(Cl)cc5)CCC(C)(C)C4)CC3)cc2)cc1S(=O)(=O)C(F)(F)F (stereo partly shown) [Compound 16a] | RS4;11 B-cell ALL cell line | 6.89 |

Next up:
Item: CN(CCCCCCCn1cc(COCCOCCNc2cccc3c2C(=O)N(C2CCC(=O)NC2=O)C3=O)nn1)CC[C@H](CSc1ccccc1)Nc1ccc(S(=O)(=O)NC(=O)c2ccc(N3CCN(CC4=C(c5ccc(Cl)cc5)CCC(C)(C)C4)CC3)cc2)cc1S(=O)(=O)C(F)(F)F (stereo partly shown) [Compound 15a] | pIC50: 7.21
